tested on: CP269; experiment: qHTS profiling for inhibitors of Plasmodium falciparum proliferation (AID 504749); further: nearly all actives have a fitted effect of over 60% in size; further: potency means the concentration at half of the fitted maximal effect; conditions: P. falciparum in erythrocytes, SYBR Green DNA, 72 h; series mostly up to 12.8 µM
Results filed as inconclusive are left out. Active and inactive are the calls of the source. The call rests on the fitted dose curve; in most records, active means well fitted inhibition curve with a large enough effect; inconclusive means small, poorly fitted or top-dose-only effect; inactive means flat fitted curve, though single readings scatter.
MEASUREMENT_TYPE: Potency

Known Potency results, listed for orientation:
COMPOUND	Potency
CC(C)(C)NC[C@H](O)COc1cccc2c1C[C@@H](O)[C@@H](O)C2	inactive
COc1ccc2cc1Oc1ccc(cc1)CC1c3c(cc4c(c3Oc3cc5c(cc3OC)CCN(C)C5C2)OCO4)CCN1C (configuration not stated)	13.5 µM (active)
CC(=O)O[C@H]1C[C@@]2(C)[C@H](C[C@@H](O)[C@H]3[C@@]4(C)CC[C@@H](O)[C@@H](C)[C@H]4CC[C@@]32C)C1=C(CCC=C(C)C)C(=O)O	inactive
COc1cc(N[C@@H](C)CCCN)c2ncccc2c1	1.81 µM (active)

Input: Param item = COc1ccc([C@@H]2CC(=O)c3c(O)cc(O[C@H]4O[C@@H](CO[C@H]5O[C@@H](C)[C@@H](O)[C@@H](O)[C@@H]5O)[C@@H](O)[C@@H](O)[C@@H]4O)cc3O2)cc1O ; retrieve measured Potency.
Output: inactive

Input: Tell me the measured Potency of CCOC(=O)[C@H](CCc1ccccc1)N[C@@H](C)C(=O)N1[C@H](C(=O)O)C[C@H]2CCC[C@@H]21 , please.
Output: inactive

Input: Tell me the measured Potency of C[C@H](Oc1ccccc1)C(=O)N[C@@H]1C(=O)N2[C@@H]1SC(C)(C)[C@@H]2C(=O)O , please.
Output: inactive
